Target: CHK2 (UniProt O96017)
Sequence (O96017 whole entry): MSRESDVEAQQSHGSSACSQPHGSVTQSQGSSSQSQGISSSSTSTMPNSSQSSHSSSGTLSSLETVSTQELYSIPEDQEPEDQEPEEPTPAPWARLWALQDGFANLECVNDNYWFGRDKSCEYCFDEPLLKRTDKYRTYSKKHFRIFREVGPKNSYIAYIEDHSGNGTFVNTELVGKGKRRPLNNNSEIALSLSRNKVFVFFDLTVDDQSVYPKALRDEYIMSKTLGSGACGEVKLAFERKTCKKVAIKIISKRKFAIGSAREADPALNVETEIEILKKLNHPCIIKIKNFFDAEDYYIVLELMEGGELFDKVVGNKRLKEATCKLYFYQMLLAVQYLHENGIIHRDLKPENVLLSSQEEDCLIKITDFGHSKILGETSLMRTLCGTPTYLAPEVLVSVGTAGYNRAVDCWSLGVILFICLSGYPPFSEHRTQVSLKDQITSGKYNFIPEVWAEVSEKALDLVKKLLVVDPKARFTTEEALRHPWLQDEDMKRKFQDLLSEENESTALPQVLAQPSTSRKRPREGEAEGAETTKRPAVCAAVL
Test: fluorescence polarization
Details: 25 mM Tris-HCl pH 8.0, 10 mM NaCl, 25 mM KCl, 5 mM MgCl2, 0.01% IGEPAL CA630, 10 ug/ml yeast tRNA, SUPERase-In; 2 nM RNA, room temperature 2 h; F-EMSA on …
Reported metric: Kd (nM)

INSERT INTO measurements (residue_codes, endpoint_result) VALUES
  ('GGGAAUGGAUCCACAUCUACGAAUUCGAUCGGUUCCAACGCUCUGUCGCCUAAGUGAACAGAUGAAGAAAAAAUAGCCCAAUAAGAGGCAACAAUCUUUCACUGCAGACUUGACGAAGCUU [C6M1]', 299);
